Reference for the values: patent US20160200799A1

// values below are reported Neutralizing activity (%) at 250 µg/ml
- test-target: Influenza virus A/Brisbane/59/2007 (H1N1) (Influenza A virus A/Brisbane/59/2007 (H1N1))
- protocol-description: cell-based or functional assay
assay-readout: Neutralizing activity (%) at 250 µg/ml

[[record]]
binder = "Group 64 representative clone F083-301, Fab-PP-type antibody (Fab, V domains shown) VH: QVQLVQSGAEVKKPGSSVKVSCKASGGIFNSNAISWVRQAPGQGLEWMGGIIGIFGTANYAQKFQGRVTIAADQSTNTVFMELSSLTSEDTAVYFCARSRGYSFGYGTDYFDYWGQGTLVTVSS VL: DIVMTQSPSTLSASVGDRVTITCRASQSISSWLAWYQQAPGKAPKLLIYEASKLQSGVPSRFSATGSGTEFTLTIASLQPEDFAIYYCQHYEAYPFSFGPGTKLDVK"
assay_readout = "Neutralizing activity (%) at 250 µg/ml"
output_unit = "%"
value = 92.1

[[record]]
binder = "Group 51 representative clone F083-302, Fab-PP-type antibody (Fab, V domains shown) VH: QVQLVQSGAEVKKPGSSVKVSCEASGATFSSNAFSWVRQAPGQGPEWMGGIITMFRKAEYAQKFQGRVTITAGELGSTAYMEVRSLTFEDTAVYYCARHSGYHLIGYFDSWGQGTLVTVSS VL: QSVLTQPPSVSAAPGQKVTISCSGTTSNIGNNYVSWYQQLPGAAPKLLIYDNNKRPSGIPDRFSGSKSDTSATLGITGLQTGDEADYYCGTWVSSLSVWVFGGGTKLTVLG"
assay_readout = "Neutralizing activity (%) at 250 µg/ml"
output_unit = "%"
value = 98

[[record]]
binder = "Group 42 representative clone F083-249, Fab-PP-type antibody (Fab, V domains shown) VH: QVQLVQSGSEVKKPGSSVKVSCKASGVTFSSYAISWVRQAPGQGLEWMGGISPMFGTTRYAQKFQGRVTITADESTRTGFMELSSLRSGDTAVYYCARSPTYYPGALDMWGQGTTVTVSS VL: DVVMTQSPSLLSASVGDRVTITCRASQAIANFVSWFQQKPGEAPKSLIHAASTLQGGVPPRFSGSGYGAVFTLTITNLQPEDFATYFCQQYNSLPFTFGPGTDVEVR"
assay_readout = "Neutralizing activity (%) at 250 µg/ml"
output_unit = "%"
value = 100

[[record]]
binder = "Group 1 representative clone F080-227, Fab-PP-type antibody (Fab, V domains shown) VH: QVQLQESGAEVKKPGSSVKVSCKASGGIFRRNAISWVRQAPGQGLEWMGGIIAIFGTANYAQKFQGRVTITADESTSTVYMELSSLRPEDTAVYYCARGPNYYENFFDYWGQGTLVTVSS VL: DIVMTQSPSSLSASVGDRLDLTCRASQDIANSLAWYKQRPGKAPELLVFGASRLEGGVPSRFSGTRAGTDFTLTISSLQPEDLGTYFCQQYFSFPRTFGQGTTLDLR"
assay_readout = "Neutralizing activity (%) at 250 µg/ml"
output_unit = "%"
value = 98

[[record]]
binder = "Group 58 representative clone F083-307, Fab-PP-type antibody (Fab, V domains shown) VH: QVQLQQSGADVKKPGSSVKVSCKASGGTFGNYAISWVRQAPGQGLEWMGGITPIFGPANYAQRFQGRVTISADISTRTAYMELSSLRSEDTAIYYCARHPTYYFGSAMEYWGQGTLVTVSS VL: SYELTQPPSVSVAPGQTATITCGGDRIGTGPVHWYQQRPGRAPVLIIYGSTHRPSGIPERFSGSKSVNTATLSISGVGVGDEADYYCQVWDTSTAQPIVFGGGTKLTVLS"
assay_readout = "Neutralizing activity (%) at 250 µg/ml"
output_unit = "%"
value = 100

